Sourced from patent US20250214942A1

The entries below come with measured IC50 values attached.
target: RIPK1 (Homo sapiens (Human), UniProt Q13546); experiment: ADP-Glo kinase assay (RIPK1 activity, conversion of ATP to ADP); type: biochemical; conditions: 5 nM RIPK1, 50 μM ATP, 6 h reaction; read-out: RIPK1 Enzyme Avg IC50
Sequence (Q13546 1-327): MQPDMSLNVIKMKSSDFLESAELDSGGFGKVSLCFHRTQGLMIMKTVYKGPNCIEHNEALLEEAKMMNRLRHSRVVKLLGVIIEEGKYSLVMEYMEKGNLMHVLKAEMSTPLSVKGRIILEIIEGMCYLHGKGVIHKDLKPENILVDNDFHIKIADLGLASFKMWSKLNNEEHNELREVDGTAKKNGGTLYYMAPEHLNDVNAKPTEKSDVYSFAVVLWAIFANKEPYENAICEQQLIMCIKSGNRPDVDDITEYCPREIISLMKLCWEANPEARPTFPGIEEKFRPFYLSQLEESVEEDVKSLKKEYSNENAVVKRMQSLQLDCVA
Provide only the numeric value, understood in nM.

Exercise: Please provide the recorded IC50 for O=C(N1N=CCC1c1ccccc1)C12CC(C1)C2 (centres unmarked) , tested on RIPK1 (Homo sapiens (Human), UniProt Q13546).
Solution: 38

Exercise: Try this compound too: O=C(N1N=CCC1c1cc(F)cc(F)c1)C12CC(Cn3cc4c(n3)CCC4)(C1)C2 (centres unmarked)
Solution: 145

Exercise: Try this compound too: O=C(N1N=CCC1c1cc(F)cc(F)c1)C12CC(CO)(C1)C2 (centres unmarked)
Solution: 2270

* * *

molecular target: RIPK1 (Homo sapiens (Human), UniProt Q13546); assay: ADP-Glo kinase assay (RIPK1 activity, conversion of ATP to ADP); format: biochemical; settings: 5 nM RIPK1, 50 μM ATP, 6 h reaction; read-out: RIPK1 Enzyme Avg IC50
Checkbox rule: IC50 lower than 0.04 µM = Satisfied; IC50 not lower than 0.04 µM = Not satisfied.

Recorded results for 4 compounds are shown here.
1. NC(=O)c1cn(CC23CC(C(=O)N4N=CCC4c4cc(F)cc(F)c4)(C2)C3)nn1 (stereo not shown)
Not satisfied
2. O=C(N1N=CCC1c1cc(F)cc(F)c1)C12CC(Cn3cc4ccc(F)cc4n3)(C1)C2 (stereo not shown)
Not satisfied
3. N#Cc1cccc(C2CC=NN2C(=O)C23CC(Cn4ncc5c(F)cccc54)(C2)C3)c1 (stereo not shown)
Satisfied
4. N#Cc1cncc(C2CC=NN2C(=O)C23CC(Cn4ncc5cc(C#N)ccc54)(C2)C3)c1 (stereo not shown)
Satisfied

Exercise: Check if IC50 falls below 0.04 µM for O=C(N1N=CCC1c1cc(F)cc(F)c1)C12CC(Cn3nc4ccccc4c3Cl)(C1)C2 (stereo not shown) .
Solution: Not satisfied

Exercise: Try this compound too: O=C(N1N=CCC1c1cc(F)cc(F)c1)C12CC(Cn3nc(Cl)c4ccccc43)(C1)C2 (stereo not shown)
Solution: Satisfied

Exercise: Try this compound too: O=C(N1N=CCC1c1cc(F)cc(F)c1)C12CC(Cn3cc(-c4ccccn4)cn3)(C1)C2 (stereo not shown)
Solution: Not satisfied

Exercise: Try this compound too: O=C(N1N=CCC1c1cc(F)cc(F)c1)C12CC(COc3cccc(F)c3Cl)(C1)C2 (stereo not shown)
Solution: Satisfied

* * *

target: UniProt:Q13546; assay: ADP-Glo kinase assay (RIPK1 activity, conversion of ATP to ADP); format: biochemical; settings: 5 nM RIPK1, 50 μM ATP, 6 h reaction; read-out: RIPK1 Enzyme Avg IC50
metric: IC50 (nM)
Provide only the numeric value, understood in nM.

1. N#Cc1cnn(CC23CC(C(=O)N4N=CCC4c4ccccc4)(C2)C3)c1 (stereo not shown) [Example 138]
113
2. N#Cc1ccc(OCC23CC(C(=O)N4N=CCC4c4cc(F)cc(F)c4)(C2)C3)c(Cl)c1 (stereo not shown) [Example 202]
32
3. O=C(N1CC(F)CC1c1cccc(F)c1)C12CC(Cn3ncc4cc(F)ccc43)(C1)C2 (stereo not shown) [Example 27]
14

Exercise: Please provide the recorded IC50 for Cc1csc(C2CC=NN2C(=O)C23CC(Cn4cc(C#N)cn4)(C2)C3)n1 (stereo not shown) [Example 170] , tested on UniProt:Q13546.
Solution: 4670

* * *

target: RIPK1 (Homo sapiens (Human)); assay: ADP-Glo kinase assay (RIPK1 activity, conversion of ATP to ADP); assay type: biochemical; settings: 5 nM RIPK1, 50 μM ATP, 6 h reaction; read-out: RIPK1 Enzyme Avg IC50
Checkbox rule: IC50 lower than 200 nM = rule met; IC50 not lower than 200 nM = rule not met.

Recorded results for 5 compounds are shown here.
1. O=C(N1N=CCC1c1cc(F)cc(F)c1)C12CC(Cn3ncc4cncc(Cl)c43)(C1)C2 (centres unmarked) [Example 68]
rule met
2. N#Cc1ccc2c(cnn2CC23CC(C(=O)N4N=CC[C@H]4c4cc(F)cc(F)c4)(C2)C3)c1 [Example 253]
rule met
3. O=C(N1N=CCC1c1cc(F)cc(F)c1)C12CC(Cn3cc(C(F)(F)F)cn3)(C1)C2 (centres unmarked) [Example 72]
rule met
4. O=C(N1N=CCC1c1cc(F)cc(F)c1)C12CC(CCl)(C1)C2 (centres unmarked) [Example 11]
rule met
5. N#Cc1ccc2c(cnn2CC23CC(C(=O)N4CCC4c4ccccc4F)(C2)C3)c1 (centres unmarked) [Example 248]
rule met

Exercise: Check if IC50 falls below 200 nM for O=C(N1N=CCC1c1cc(F)cc(F)c1)C12CC(CN3C(=O)C4(CC4)c4ccccc43)(C1)C2 (centres unmarked) [Example 125] .
Solution: rule not met

Exercise: Try this compound too: N#Cc1ccc2c(cnn2CC23CC(C(=O)N4N=CCC4c4cnccn4)(C2)C3)c1 (centres unmarked) [Example 51]
Solution: rule met

Exercise: Try this compound too: COc1ccc(C(F)C23CC(C(=O)N4N=CCC4c4cc(F)cc(F)c4)(C2)C3)cc1 (centres unmarked) [Example 228]
Solution: rule not met

Exercise: Try this compound too: O=C(N1N=CCC1c1cc(F)cc(F)c1)C12CC(COc3ccc(F)cc3F)(C1)C2 (centres unmarked) [Example 335]
Solution: rule met

Exercise: Try this compound too: N#Cc1ccc2c(cnn2CC23CC(C(=O)N4N=CCC4c4ccc5nccn5c4)(C2)C3)c1 (centres unmarked) [Example 258]
Solution: rule not met

Exercise: Try this compound too: CS(=O)(=O)C1CN(CC23CC(C(=O)N4N=CCC4c4cc(F)cc(F)c4)(C2)C3)C1 (centres unmarked) [Example 80]
Solution: rule not met

Exercise: Try this compound too: O=C(N1N=CCC1c1cc(F)cc(F)c1)C12CC(Cn3cc4cc(F)ccc4n3)(C1)C2 (centres unmarked) [Example 3]
Solution: rule met

Exercise: Try this compound too: N#Cc1cncc(C2CC=NN2C(=O)C23CC(Cn4cc(C#N)cn4)(C2)C3)c1 (centres unmarked) [Example 168]
Solution: rule not met

Exercise: Try this compound too: O=C(N1N=CCC1c1cc(F)cc(F)c1)C12CC(Cn3ccc4cc(F)ccc43)(C1)C2 (centres unmarked) [Example 133]
Solution: rule met

Exercise: Try this compound too: O=C(N1N=CCC1c1cc(F)cc(F)c1)C12CC(COc3ccc(Br)cc3F)(C1)C2 (centres unmarked) [Example 331]
Solution: rule met

Exercise: Try this compound too: O=C(N1N=CCC1c1cncc(F)c1)C12CC(Cn3ncc4c(F)cccc43)(C1)C2 (centres unmarked) [Example 14]
Solution: rule met

* * *

molecular target: RIPK1 (Homo sapiens (Human)); experiment: ADP-Glo kinase assay (RIPK1 activity, conversion of ATP to ADP); type: biochemical; settings: 5 nM RIPK1, 50 μM ATP, 6 h reaction; read-out: RIPK1 Enzyme Avg IC50
metric: pIC50
// pIC50: -log10(molar conc.)

1) CC1CC(c2cccc(F)c2)N(C(=O)C23CC(Cn4cc(C#N)cn4)(C2)C3)C1 (centres unmarked)
5.36
2) O=C(N1N=CCC1c1cc(F)cc(F)c1)C12CC(COc3cc(F)cnc3F)(C1)C2 (centres unmarked)
6.94
3) O=C(N1N=CCC1c1cc(F)cc(F)c1)C12CC(COc3ncc(F)cn3)(C1)C2 (centres unmarked)
7.68
4) N#Cc1cnc2c(ccn2CC23CC(C(=O)N4N=CCC4c4cc(F)cc(F)c4)(C2)C3)c1 (centres unmarked)
7.96
5) CC1=NN(C(=O)C23CC(Cn4cc(C#N)cn4)(C2)C3)C(c2cc(F)cc(F)c2)C1 (centres unmarked)
7.03
6) O=C(N1CC(F)CC1c1cccc(F)c1)C12CC(C(O)c3ccccc3)(C1)C2 (centres unmarked)
5.35
7) CCOC12CC(C(=O)N3N=CCC3c3ccccc3)(C1)C2 (centres unmarked)
6.80
8) NC(=O)c1cnnn1CC12CC(C(=O)N3N=CCC3c3cc(F)cc(F)c3)(C1)C2 (centres unmarked)
6.05
9) O=C(N1N=CCC1c1cc(F)cc(F)c1)C12CC(Cn3cc4ncccc4n3)(C1)C2 (centres unmarked)
7.37
10) O=C(N1N=CCC1c1cc(F)cc(F)c1)C12CC(Cn3ncc4ccncc43)(C1)C2 (centres unmarked)
7.68

Exercise: Could you tell me which pIC50 is on file for CN(C)C(=O)C12CC(C(=O)N3N=CCC3c3cc(F)cc(F)c3)(C1)C2 (centres unmarked) ?
Solution: 5.54

* * *

biological target: RIPK1 (Homo sapiens (Human), UniProt Q13546); assay: ADP-Glo kinase assay (RIPK1 activity, conversion of ATP to ADP); format: biochemical; conditions: 5 nM RIPK1, 50 μM ATP, 6 h reaction; read-out: RIPK1 Enzyme Avg IC50
The entries below come with measured pIC50 values attached.
// pIC50: -log10(molar conc.)

1. O=C(N1N=CCC1c1cc(F)cc(F)c1)C12CC(Cn3ncc4ncccc43)(C1)C2 (centres unmarked)
7.96

Exercise: Could you tell me which pIC50 is on file for N#Cc1ccc2c(cnn2CC23CC(C(=O)N4N=CCC4c4cncc(F)c4)(C2)C3)c1 (centres unmarked) ?
Solution: 7.77

Exercise: Try this compound too: Cc1cncc(C2CC=NN2C(=O)C23CC(Cn4ncc5cc(C#N)ccc54)(C2)C3)n1 (centres unmarked)
Solution: 7.80

Exercise: Try this compound too: CN(CC12CC(C(=O)N3N=CCC3c3cc(F)cc(F)c3)(C1)C2)c1cc(C#N)ncn1 (centres unmarked)
Solution: 7.34

Exercise: Try this compound too: O=C(N1N=CCC1c1cc(F)cc(F)c1)C12CC(Cn3ncc4c3CCC4)(C1)C2 (centres unmarked)
Solution: 6.77

Exercise: Try this compound too: COc1ccc2cn(CC34CC(C(=O)N5N=CCC5c5cc(F)cc(F)c5)(C3)C4)nc2c1 (centres unmarked)
Solution: 7.49

Exercise: Try this compound too: N#Cc1ccc2c(cnn2CC23CC(C(=O)N4N=CCC4c4cc(F)cc(F)c4)(C2)C3)n1 (centres unmarked)
Solution: 8.02
